System: MS2 coat protein
Assay: apparent Kd, MS2 coat protein; higher = weaker binding; RNA-MaP array
Settings: ligand present: flavin mononucleotide; designed as: ON switch for flavin mononucleotide
Catalogue of sequences with associated apparent Kd
I only need the number, in nM, no unit after it.

// known answers, use as guide
UUGAGAGGACAGAAGGUUGGGCUCUUGAUCUACGCGCGCGACAUGAGGAUCACCCAUGUGCUUCCAAAGGAUAUGUCACUCGCA | 44.8
UUAGUGGAACGGAAGGAUAUGAGCCACCCUACAUGAGGAUCACCCAUGUGAGCGUUGGCAGCGCAUCAGAAGGUCCUCCUACGAGU | 5.9
UUCAUCAACACAGGAUAUUCCGUCACAUGAGGAUCACCCAUGUAGCGCGUAGAUUACGGGCUUUCGAAGAAGGGUGUAAAGUCC | 43.3
GCAACAUGUUCAGGAUAUACGCUACAAACUCGUGUAGAAGGGAAGGAUACAAUUACAUGAGGAUCACCCAUGUGUUAUCCGAUU | 20.8

Exercise: Which measured apparent Kd value corresponds to GGUACUCUGUACUAACAUGAGGAUCACCCAUGUAGGCAAACUCAGGAUAUAUUGAACACACCUAGAUAGAAGGGAGUUCGUGAU ?
Solution: 9.66

Exercise: Which measured apparent Kd value corresponds to AAUGCGAGACUAGGAUAUUGCAUUCAACUCGUGCAAGAAGGAGUCGUUUCAUACAUGAGGAUCACCCAUGUCCAUAUUUCUCAA ?
Solution: 7.44

Exercise: Which measured apparent Kd value corresponds to UAACUCAAGUAACAGGAUAUGAGUGCGGAUACAUGAGGAUCACCCAUGUUGACGAUAACCGGACAACAGAAGGGUACCUAACUUGG ?
Solution: 22.2

Exercise: Which measured apparent Kd value corresponds to GCUACACAUGAGGAUCACCCAUGUCAGGUCACUGAAGGAUAUAUUACUUAAUCCUGGGUCAUAGAAGGUCAAUUGC ?
Solution: 21.9

Exercise: Which measured apparent Kd value corresponds to AAAUUCGGGAUCUAGGAUAUGUGCGUUUACACAUGAGGAUCACCCAUGUCUCACAGCCGUUUACCACAGAAGGAGAAACGACCUUA ?
Solution: 23.9

Exercise: Which measured apparent Kd value corresponds to CAAACAUUAUCAGGAUAUGUGCAAGAUCCGACAUGAGGAUCACCCAUGUUGCGGCAUCUCGGUUGACAGAAGGGAUCAUCGCCU ?
Solution: 10.1

---

Test system: MS2 coat protein
Experiment: apparent Kd, MS2 coat protein; higher = weaker binding; RNA-MaP array
Conditions: designed as: OFF switch for flavin mononucleotide; no ligand
Mark yes for reported apparent Kd of 30 nM or greater; mark no for anything smaller.

Worked examples follow.
GCGACAUGAGGAUCACCCAUGUGCCUCGUGUUAUUCUCUUUAAGAAGGAACGGGUAGCUCUAUUGUUAGGAUAUUAAUGGAAUU | yes
UAGCGGACUGUGAGGAUAUAGCAAAUUCAACAAUUCUAGAAGGCACAUGAGGAUCACCCAUGUAGAGUGAUUAA | yes
UCGAACGGGCAAGGAUAUCGAAGAUCCAAAAUUCGAGAAGGUGCAUGUGAUCGUCCGGUGUCACAUGAGGAUCACCCAUGUCAA | yes
CGUACAGUCGAAGGAUAUUCGCGGGAGUUUGCCGAAGAAGGUCGCUAGUAGGGUGACAUGCUGUGACAUGAGGAUCACCCAUGU | yes
GUCGUCACAGGAUAUACAUGAGGAUCACCCAUGUUCCCGUGUAAAUGGGUUGUGUUAGGUAGAAGGGUGCACGC | no
GCGACUCUCGUGAAGCGACAUGAGGAUCACCCAUGUAACACUAGAAGGAGGCACGAUACGAUGUCCUAGGAUAUAGACACGGCU | no
GCUUGCUCAGAGGAUAUAGUUUCAACCACUCUACUAGAAGGCUGUACAUGAGGAUCACCCAUGUCCUUAAUCUC | no
GGACAUGAGGAUCACCCAUGUGGGAUCCACUACGGUCACGCUAGAAGGGAUGUGGGUGGCCGAUAUCAGGAUAUAGCAGUUUAG | yes
ACAUGAGGAUCACCCAUGUCUCGGGUGCCGGUUUUUACCUAGAGAAGGUGCGCAACGCUGUCACGCAAGGAUAUCUCACGAACA | yes
UCGGUAUAUACAGGAUAUGGUCAAUACAUGAGGAUCACCCAUGUUAGAGCGGCAAAUAGGAUCUUCCAGAAGGGUACUUGCUUA | no

Exercise: Test whether the sequence GUUGACGAGUCAGGAUAUGAUUAGUGGGAGAAACAGCAACUCACAUGAGGAUCACCCAUGUAUGUUCAGAAGGGACGCCGAUCA records apparent Kd of 30 nM or higher.
Solution: yes

Exercise: Test whether the sequence UACGAGUAAGGAUAUACACUGACCCAAAGAGUACAGAAAAUGUAGAAGGUACAUGAGGAUCACCCAUGUAGGUG records apparent Kd of 30 nM or higher.
Solution: yes

---

Catalogue of sequences with associated apparent Kd
Test system: MS2 coat protein
Assay: apparent Kd, MS2 coat protein; higher = weaker binding; RNA-MaP array; FMN 200 µM where present
Settings: ligand present: flavin mononucleotide; designed as: ON switch for flavin mononucleotide
I only need the number, in nM, no unit after it.

// known answers, use as guide
CUCUUACAUGAGGAUCACCCAUGUGUUGUCGUGGGAGGAUAUCCUGGUUCGGUGGCGUUGGGAGAAGGCCUAUGUC | 242
GUUGACAGCACAGGAUAUGCGCAGUCUAUAUCACAUGAGGAUCACCCAUGUCGGCAACAGACCGAGCAGAAGGGUGCGAGUGUG | 39.7

Exercise: Look up apparent Kd with MS2 coat protein for this sequence: CGCUACUGCCAGAAGGACAUGAGGAUCACCCAUGUAGGAUAUGGGUGUCGAGGACCAGUGUAGAGAAACUACGCUACAGUAGCG
Solution: 57.6

Exercise: Look up apparent Kd with MS2 coat protein for this sequence: UGAAUGUAGGAGAAGGAGGACUUCAUGAGGAUCACCCAUGUGUUAGGACUUAGGAUAUUUGACGACAUGAGGAUCACCCAUGUG
Solution: 55.7

Exercise: Look up apparent Kd with MS2 coat protein for this sequence: UAUUAAUACAUAUACAUGAGGAUCACCCAUGUCAAAAGACAUGAGGAUAUGGAUCCUAAUUGGAUCCAGAAGGCAUGAAUAAUU
Solution: 17.6

Exercise: Look up apparent Kd with MS2 coat protein for this sequence: GACAUACAUGAGGAUCACCCAUGUACAGACGUACAAGGAUAUGUGUGGAAACCGUACUAUACAGAAGGUGUUUGUC
Solution: 33.9

Exercise: Look up apparent Kd with MS2 coat protein for this sequence: AGUAUACAUGAGGAUCACCCAUGUCUGUAACGGACAGGAUAUGCGUUGCAUCACUGUAAUGCAGAAGGGUCCUGUA
Solution: 45.2

---

Test system: MS2 coat protein
Experiment: apparent Kd, MS2 coat protein; higher = weaker binding; RNA-MaP array
Conditions: ligand present: flavin mononucleotide; designed as: OFF switch for flavin mononucleotide
Catalogue of sequences with associated apparent Kd
I only need the number, in nM, no unit after it.

UGCGCGAGAGGAUAUUAUCGUAACUACAUGAGGAUCACCCAUGUUUCGCCCGUAGCUGGAUAAGAAGGCUCGAGUG | 20.7

Exercise: Which measured apparent Kd value corresponds to GUUGGACAUGAGGAUCACCCAUGUGAAUUGUUUUCCACGUACUAGGAUAUCGCGGGACAAACCAUCGAGAAGGAGUCGACCUAA ?
Solution: 12.2

Exercise: Which measured apparent Kd value corresponds to GUCAUGUUAGGAUAUACACGUACCCGCCGACAGCCAGCAAUGUAGAAGGAACAUGAGGAUCACCCAUGUCGUGG ?
Solution: 31.5

Exercise: Which measured apparent Kd value corresponds to CAAUGACCCAAGGAUAUCUGCAGACGCGAGCCCAGAGAAGGUGGGACAUGAGGAUCACCCAUGUUCUCGUGUGA ?
Solution: 73.1

Exercise: Which measured apparent Kd value corresponds to CUAAGAUAAGAAGGAUAUAAAACAUGAGGAUCACCCAUGUAAAAGUACAUCACACUACAAAUGGAUUAGAAGGUCUUAAUAACC ?
Solution: 8.47

Exercise: Which measured apparent Kd value corresponds to AUCAUGAUUUUAGGAUAUAUGACGUUAUACAAUGGACAUGAGGAUCACCCAUGUAGUCGCGCUCUAUAGAAGGAAAGCUCAGUU ?
Solution: 36.5

Exercise: Which measured apparent Kd value corresponds to GUUCGGCGAGGAUAUCUGCUACAGUACAUGAGGAUCACCCAUGUGGGUUAUGUCCGGUCCAGAGAAGGCGCUGCCA ?
Solution: 47.9

---

Catalogue of sequences with associated apparent Kd
System: MS2 coat protein
Experiment: apparent Kd, MS2 coat protein; higher = weaker binding; RNA-MaP array; FMN 200 µM where present
Settings: ligand present: flavin mononucleotide; designed as: OFF switch for flavin mononucleotide
I only need the number, in nM, no unit after it.

// known answers, use as guide
UGCCUGAGGCAAAGCUUUAGGUAUACAUGAGGAUCACCCAUGUAGGAUAUGGUAGGCUUUGCUUACCAGAAGGACAUGUUAAUU | 54.6
GGGCUGUCAGGAUAUCUCGGGCUCGGGUAAACUCGGGCUCGGGAGAAGGGACAUGAGGAUCACCCAUGUGGCCC | 33
GGCCGUAAUAAGGAUAUCACUAGCUUCGGCUAGUGAGAAGGUAUUACAUGAGGAUCACCCAUGUGGUCAGGCCA | 730
UUGGACAGCUAGAACUGUUAAGUACAUGAGGAUCACCCAUGUCAGGAUAUCCUUCCGCAAUGCGAGGAGAAGGGACAGGGUCCC | 124

Exercise: Which measured apparent Kd value corresponds to GUAAUUAAUGUAGGAUAUGCAAGGCGAACCUAAGCAGAAGGACAUGAGGAUCACCCAUGUAUUGCGGUCUGCGUUCAGAUCGCU ?
Solution: 49.5

Exercise: Which measured apparent Kd value corresponds to GUAUCGUGAGGAUAUCAUGAUUGACUUUUAUUUUGUCAGCGUGAGAAGGCACAUGAGGAUCACCCAUGUGAUUA ?
Solution: 50.5

Exercise: Which measured apparent Kd value corresponds to UAUAUGUAUGUAGGAUAUGGUAUAUAAAAUAUACCAGAAGGACAUGAGGAUCACCCAUGUAUGAAAUUCCAUAAUAACCGUGUA ?
Solution: 11

Exercise: Which measured apparent Kd value corresponds to UUUCUCUGGGCGUCUUCUUACAUGAGGAUCACCCAUGUUUCAUAGGAUAUGCUAUAGUGUUACAUGCAGAAGGAUGUUUGUUUU ?
Solution: 474
